// values below are reported protein stability index
B1: PDZK1 (parent)
chain: FQAKKIPIVSSLADPLDTPPDSKE

# Variants of: B1
# assay info: protein stability index of a GFP-peptide fusion (GPS, HEK-293T) (PSI 1-6); higher = more stable;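 further: lentivirally expressed fusions sorted by FACS into six bins by GFP to DsRed ratio, PSI derived from sequencing read proportions per bin multiplied by bin number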
# conditions: c terminus: a fixed tail appended
API note: the answer field is a bare number with no unit suffix.

primary sequence	protein stability index
FQAKKIPIVSSLAMPLDTPPDSKE [D14M]	3.55
FQAKKIPIVSSLADPLDTPPDSVE [K23V]	3.33
FQAKKIPIVSSLADPLDWPPDSKE [T18W]	3.86
FQAKKIPIVSSLADPLDTPPDSGE [K23G]	3.94

Would you kindly look at the next entry?
QUERY: If you can, please state the reported protein stability index value of FQAKKIPIVSSLADNLDTPPDSKE [P15N] .
RESULT: 3.64
